# test: NCI Yeast Anticancer Drug Screen. Data for the bub3 strain (AID 167)
# condition-context: S. cerevisiae bub3 mutant strain, at 50.0 µM
The panel holds about 79,000 compounds, 15% with a hit somewhere; the sample as a whole holds those more often. Active and inactive are the calls of the source. Cut-off read from the data, not from the text of the source: active = growth inhibition above about 70%; inactive = the rest. Where a SMILES comes first, the peptide text is derived from it. [ ]: non-standard residue; d: D form. Nva = CCC[CH](N)C(=O)O
Classes used: y = active, n = inactive

1. O=C(CNc1ccccc1[N+](=O)[O-])Nn1c(-c2ccccc2)nc2ccccc2c1=O ... n
2. Cc1cc(=O)c2c(ccc3cc4ccccc4cc32)[nH]1 ... n
3. CC(=O)c1cc(I)c(O)c2ncccc12 ... y
4. NC(=S)NNc1c([N+](=O)[O-])cnn(-c2ccccc2)c1=O ... n
5. C1=C(CC2=C[P+](c3ccccc3)(c3ccccc3)C=C(c3ccccc3)O2)OC(c2ccccc2)=C[P+]1(c1ccccc1)c1ccccc1 ... y
6. Cc1cnc(C#N)c(C#N)n1 ... n
7. OC(c1ccccc1)c1cccc(Br)c1 (stereo not drawn) ... n
8. CS(=O)(=O)N\N=C1/C=C\C(=N/NS(C)(=O)=O)CCc2ccc(cc2)CC1 ... y
9. CCOC(=O)C1(C#N)C(c2ccccc2)CC(O)(c2ccc([N+](=O)[O-])cc2)C(C(=O)c2ccc([N+](=O)[O-])cc2)C1c1ccccc1 (stereo not drawn) ... n
10. C=CCNC(=S)N/N=C(\CCC)c1ccccn1 ... y
11. CN(C)C=Nc1ccc2nonc2c1 ... n
12. C(CCCCCN1CCCCC1)CCCCN1CCCCC1 ... n
13. FC(F)(F)c1cccc(COCCN2CCN(Cc3cccc(C(F)(F)F)c3)CC2)c1 ... y
14. CC(=O)C1C(=O)C=C(C)OC1=O (stereo not drawn) ... n
15. Cc1c2ccccc2c(CCl)c2ccc3ccccc3c12 ... y
16. CCOC(=O)C1CC2(CCC1N)c1ccccc1-c1ccccc12 (stereo not drawn) ... y
17. CCC(=O)[O][Bi]([c]1ccccc1)[c]1ccccc1 ... y
18. COc1cc(/C=C2/C(=O)N(C(=O)c3ccccc3O)N=C2C)cc(OC)c1OC ... y
19. CCN(CC)CCCNc1ccc([N+](=O)[O-])c2nc3ccc(OC)cc3c(N)c12 ... n
20. CCOC(=O)N1C=CC(=C2C(=C3C=CN(C(=O)OCC)C=C3)C(=C3C=CN(C(=O)OCC)C=C3)C2=C2C=CN(C(=O)OCC)C=C2)C=C1 ... n
21. CC(=O)NC1CCCCC1c1ccc(C2CCCCC2NC(C)=O)cc1 (stereo not drawn) ... n
22. S=C1C(=Nc2ccccc2)N(c2ccccc2)/C(=N\c2cccc[n+]2Cc2ccccc2)N1c1ccccc1 ... y
23. CCCC(N)C(=O)NC(C(=O)O)C(C)C (stereo not drawn) (H-[Nva]-Val-OH; configuration not given here) ... n
24. CC1=CC(C)C(C)N(CCNC(=O)Nc2ccccc2)c2ccccc21 (stereo not drawn) ... y
25. O=c1c2ccccc2sc2cccc(NCCCN3CCN(CCCNc4cccc5sc6ccccc6c(=O)c45)CC3)c12 ... n
26. O=C1c2ccccc2C(=O)N1/N=C\c1ccccc1[N+](=O)[O-] ... n
27. O=C(Nc1ccc(-c2cn3ccccc3n2)cc1)c1cc(Br)ccc1O ... n
28. CCCCC(=O)N/N=C(\C)[C@]1(O)Cc2c(O)c3c(c(O)c2[C@@H](OC2CC(N)C(O)C(C)O2)C1)C(=O)c1c(OC)cccc1C3=O (stereo partly drawn) ... y
29. COc1cc(NCc2ccc3nc(-c4ccccc4)c(N)nc3c2)cc(OC)c1OC ... n
30. NNc1nc(Nc2ccccc2)nc(Nc2ccccc2)n1 ... n
31. CCOC(=O)c1ccc(-c2cccs2)n1C ... n
32. CCC1CCC2C3CC=C4CC(OC(C)=O)C(N)CC4(C)C3CCC12C (stereo not drawn) ... y
33. c1ccc2c(c1)oc1cc3c(cc12)CCCN3 ... y
34. CCC1=C(c2ccccc2)C(O)(c2ccccc2)C(CC)C1=O (stereo not drawn) ... y
35. CN(Cc1cnc2nc(N)nc(N)c2n1)c1ccc(C(=O)NC(CCC(=O)O)C(=O)O)cc1C(F)(F)F (stereo not drawn) ... y
36. O=C(O)CN1CCNCCN(CC(=O)O)CCNCC1 ... n
37. O=C(OCCCC(C(=O)c1ccccc1)=P(c1ccccc1)(c1ccccc1)c1ccccc1)c1ccccc1 ... n
38. CC(=O)c1ccc2c(c1)CC1(C2)Cc2ccccc2C1=O (stereo not drawn) ... y
39. CN(C)C=Nc1c2ccccc2nc2ccccc12 ... y
40. CCCN(Cc1ccccc1)S(=O)(=O)c1ccc(C)cc1 ... n
41. CCCCCCCCCCCCCCCCNCCCN(C)CCCN ... y
42. CCC[N+]1=C(/C=C/c2ccc3cccnc3c2O)C(C)(C)c2ccccc21 ... y
43. COC1CC(OC(=O)c2ccccc2)C2OC(c3ccccc3)OCC2O1 (stereo not drawn) ... n

====

# test: NCI Yeast Anticancer Drug Screen. Data for the mlh1 rad18 strain (AID 175)
# condition-context: S. cerevisiae mlh1 rad18 strain growth inhibition; at 50.0 µM (retest, dose inferred, filed as 5.0)
About 79,000 compounds went through this panel and 15% of them were active in at least one assay; those are over-represented in the sample as a whole. Activity calls are given as the source filed them. No stated cut-off is given here; in the data, active means growth inhibition above about 70%; inactive means the rest.
Labels: active, inactive

1) O=c1oc(-c2ccc(Cl)cc2[N+](=O)[O-])nc2ccccc12 ... inactive
2) CSC(=S)N/N=C/c1cccc(C)n1 ... active
3) CCOC(=O)C(=Cn1c(=S)[nH]c2ccc([N+](=O)[O-])cc21)C(=O)OCC ... inactive
4) Oc1ccc2ccccc2c1I ... inactive
5) CC(=O)OC1=CC(n2cc(F)c(=O)[nH]c2=O)OC(C)C1=O (stereo unspecified) ... inactive
6) CCOC(=O)C(NC(C)=O)[CH](c1ccccc1)[Sn]([Cl])([c]1ccccc1)[c]1ccccc1 (stereo unspecified) ... inactive

====

# test: NCI Yeast Anticancer Drug Screen. Data for the cln2 rad14 strain (AID 165);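 note: 0% = growth equal to vehicle treated cultures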
# condition-context: S. cerevisiae cln2 rad14 strain, at 50.0 µM, active compounds read high
The panel holds about 79,000 compounds, 15% with a hit somewhere; the sample as a whole holds those more often.
measurement-label: growth inhibition (%)

1. CCN(CC)CCSCCCNc1cc(C)nc2c1ccc1c2ccc2c(NCCCSCCN(CC)CC)cc(C)nc21 ... 72.5
2. CN(C)c1ccc(/C=C/c2ccnc3ccccc23)cc1Cl ... -12.6
3. CC(NNC(=S)N1CCCC1)c1ccc2ccccc2n1 (configuration not stated) ... 97
4. C#CC(C)(C)OC(C)=O ... 5.75
5. CN(C)C(=O)c1cc(Br)cc(-c2ccccc2)c1O ... 38.6
6. COc1ccc(C2=C/C(=C3\C(=O)Oc4ccccc4C3=O)SS2)cc1 ... 38.5
7. Cc1ccc(NC(=O)COC(=O)c2cccc3c(=O)c4ccccc4[nH]c23)cc1 ... 61.6
8. C=CCOCCC(=O)OCC=C ... 72.2
9. CC(C)C(=O)N1Cc2cc(Cl)cc(Cl)c2OC(=O)c2ccccc21 ... 48.7
10. O=C(Nc1ccc(Cl)cc1)Nc1nnc2nc(C(C(=O)/C=C/c3ccccc3)c3nc4nnc(NC(=O)Nc5ccc(Cl)cc5)n4[nH]c3=O)c(=O)[nH]n12 ... 28.6
11. Cc1c[nH]c(C(=O)O)c1-c1ccc2c(-c3ccccc3)nc3ccccc3n12 ... 89
12. O=C1OC(C2OC(=O)C(=O)C2C(=O)c2ccc([N+](=O)[O-])cc2)C(C(=O)c2ccc([N+](=O)[O-])cc2)C1=O (configuration not stated) ... 64.2
13. O=[N+]([O-])c1ccc(NS(=O)(=O)c2ccc(Cl)c(Cl)c2Cl)c([N+](=O)[O-])c1 ... 45.1
14. CCCCCCC(C)OC(=O)c1ccccc1C(=O)O (configuration not stated) ... 63.5
15. Nc1ccc(C(=O)N/N=C\c2cccc3ccccc23)cc1 ... 34.4
16. COC(=O)C(O)(/C(=N\O)c1ccccc1)c1ccccc1 (configuration not stated) ... 71.1
17. CCOC(=O)c1cc(NC(=O)c2cc(NC(=O)c3cc(NC(=O)c4c(-c5ccccc5)noc4C)cn3C)cn2C)cn1C ... 14.8
18. O=C(OC1C=C=CS(=O)(=O)CC#C/C=C\1)c1cnc2ccccc2n1 (configuration not stated) ... 78.5
19. C/C(O)=c1\cc(C#N)c(=C(C#N)C#N)nc1C ... -3
20. O=CNc1ccc(Oc2ccc(NC=O)cc2)cc1 ... 61.3
21. CC(C)/C=C1\CCOC1=O ... 44.5
22. C/C(=N\NS(=O)(=O)c1ccc(C)cc1)c1cc2ccccc2n1C ... 78.5
